Assign cell viability to each entry below.
- Tested on: NOMO1
- measurement-notes: cell viability relative to DMSO control; higher = less cytotoxic
- measurement-parameters: RPMI 5 mM glucose + 10% FBS; 48 h; 0.00234 µM
One number for each entry, in %.

Worked set:
{"columns": ["molecule", "measurement-target", "cell viability (%)"],
 "data": [
  ["Cl.Cl.Cl.O[C@@H](COc1cccc2ncccc12)CN1CCN([C@@H]2c3ccccc3[C@@H]3[C@H](c4ccccc42)C3(F)F)CC1", "NOMO1", 78.4],
  ["CC(C)OC(=O)OCOP(=O)(CO[C@H](C)Cn1cnc2c(N)ncnc21)OCOC(=O)OC(C)C.O=C(O)C=CC(=O)O", "NOMO1", 121],
  ["COc1ccc(C[C@@H](C)[C@@H](C)Cc2ccc(OC)c(OC)c2)cc1OC", "NOMO1", 93.7],
  ["CCC1(C)CC(=O)NC1=O (stereo not given)", "NOMO1", 89.2]
]}

Moving on to the next molecule.
Return cell viability measured with NOMO1 given this molecule: Cn1c(=O)c2c(ncn2C)n(C)c1=O.O=C(O)CC(O)(CC(=O)O)C(=O)O
98.9
